# Procedure Text: TLR3 IRF3 reporter activation blockers – cell-based, poly I:C stimulus, luciferase, 10K MLSCN set, primary screen (AID 602277)
# Reported Conditions: HEK293-TLR3 RL24 IRF3 luciferase reporter, at 10 µM, stronger effect = higher value
Value Kind: inhibition (%)

>>> print(df.to_string())
                              record_smiles  result_number
0  CC(=O)Nc1ccc(NS(=O)(=O)c2ccc(Cl)c(C(=O)O)c2)cc1           20.4
1  COc1ccc(CCN(Cc2cc3cccc(C)c3[nH]c2=O)C(=O)N2CCCC2)cc1OC           16.5
2  NC(=O)C1(N2CCCCC2)CCN(CC(=O)Nc2cc(Cl)ccc2Cl)CC1          -7.63
3  Cc1cc(C)n2nc(S(=O)(=O)N(C)Cc3ccccc3)nc2n1           8.01
4     CCCn1nnc(NCc2ccc(OCc3cccs3)c(OC)c2)n1           6.19
